Assay: Pharmacokinetic parameters following intravenous and oral administration in rats
Type: in vivo, male Wistar rats
Settings: male, Wistar, rat, plasma, iv, intravenous administration, read-out: t½ (converted)
Structures can show the parent of a compound that is named as a salt.
resultType: half-life (h)

Examples with answers:
[[record]]
compound = "O=C(O)c1cnn(-c2cccc(-c3cc(Cl)ccc3-c3ccc(N4CCN(CC5CC5)CC4)cc3)n2)c1C(F)(F)F [Comparative Example 174 (WO2012/058132), reference compound]"
resulttype = "half-life"
readoutvalue = 2.33

[[record]]
compound = "O=C(O)c1cnn(C2CCCN(c3cc(Cl)ccc3-c3ccc(N4CCN(CC5CC5)CC4)cc3)C2)c1C(F)F (single isomer, unassigned) [Example 5, hydrochloride]"
resulttype = "half-life"
readoutvalue = 2.43

[[record]]
compound = "O=C(O)c1cnn(C2CCCN(c3cc(Cl)ccc3-c3ccc(N4CCN(CC(F)(F)F)CC4)cc3)C2)c1C(F)F (single isomer, unassigned) [Example 7]"
resulttype = "half-life"
readoutvalue = 3.83


1. CC(C)CN1CCN(c2ccc(-c3ccc(Cl)cc3N3CCCC(n4ncc(C(=O)O)c4C(F)(F)F)C3)cc2)CC1 (single isomer, unassigned) [Example 9, hydrochloride]
2. CCCN1CCN(c2ccc(-c3ccc(Cl)cc3N3CCCC(n4ncc(C(=O)O)c4C(F)F)C3)cc2)CC1 (single isomer, unassigned) [Example 4, hydrochloride]
IN: API: POST /compare with 1 and 2 ; response names the item with higher half-life. Please identify the chosen entry by its label.
OUT: 1

====

Experiment: Pharmacokinetic parameters following intravenous and oral administration in rats
Assay type: in vivo, male Wistar rats
Settings: male, Wistar, rat, plasma, iv, intravenous administration, read-out: CLplasma (converted)
Where a name gives a salt, the structure may show the parent alone.
resultType: clearance (mL/min/kg)

[[record]]
compound = "O=C(O)c1cnn(C2CCCN(c3cc(Cl)ccc3-c3ccc(N4CCN(CC5CC5)CC4)cc3)C2)c1C(F)F (single isomer, unassigned) [Example 5, hydrochloride]"
resulttype = "clearance"
readoutvalue = 13.5

[[record]]
compound = "CC(C)CN1CCN(c2ccc(-c3ccc(Cl)cc3N3CCC[C@@H](n4ncc(C(=O)O)c4C(F)F)C3)cc2)CC1 (single isomer, unassigned)"
resulttype = "clearance"
readoutvalue = 2.33


a. O=C(O)c1cnn(-c2cccc(-c3cc(Cl)ccc3-c3ccc(N4CCN(CC5CC5)CC4)cc3)n2)c1C(F)(F)F [Comparative Example 174 (WO2012/058132), reference compound]
b. O=C(O)c1cnn(C2CCCN(c3cc(Cl)ccc3-c3ccc(N4CCN(CC5CC5)CC4)cc3)C2)c1C(F)(F)F (single isomer, unassigned) [Example 10, hydrochloride]
IN: Returns: the label, a or b , whose recorded clearance is the lower number. Please identify the chosen entry by its label.
OUT: b
(b: 12.2 mL/min/kg, a: 21.7 mL/min/kg)

====

Test: Pharmacokinetic parameters following intravenous and oral administration in dogs
Format: in vivo, female beagles
Details: female, beagle, dog, plasma, oral administration (p.o.)
Structures can show the parent of a compound that is named as a salt.
resultType: MRT (h)

[[record]]
compound = "CC(C)CN1CCN(c2ccc(-c3ccc(Cl)cc3N3CCC[C@@H](n4ncc(C(=O)O)c4C(F)F)C3)cc2)CC1 (single isomer, unassigned)"
readoutvalue = 21.3


a. O=C(O)c1cnn(-c2cccc(-c3cc(Cl)ccc3-c3ccc(N4CCN(CC5CC5)CC4)cc3)n2)c1C(F)(F)F [Comparative Example 174 (WO2012/058132), reference compound]
b. CC(C)CN1CCN(c2ccc(-c3ccc(Cl)cc3N3CCCC(n4ncc(C(=O)O)c4C(F)(F)F)C3)cc2)CC1 (single isomer, unassigned) [Example 9, hydrochloride]
IN: API: POST /compare with a and b ; response names the item with higher MRT. Please identify the chosen entry by its label.
OUT: b

Reference source: patent US20230346777A1
